Test: qHTS assay to identify small molecule antagonists of the thyroid receptor (TR) signaling pathway (AID 743065); also: nearly all actives have a fitted effect of over 55% in size
Settings: GH3.TRE-Luc, T3-stimulated luciferase inhibition, 23.5 h; series mostly up to 70.3 µM
Results filed as inconclusive are left out. Activity calls are given as the source filed them. Calls follow the shape of the dose curve; as a rule, active = well fitted inhibition curve with a large enough effect in the repeat runs; inconclusive = weak or mixed curves; inactive = no such curve, though single readings can be large or run the other way.
Log the outcome using a class from Yes = active, No = inactive

CC(CCl)OC(C)CCl (stereo unspecified) = No
Cc1nc2sccn2c(=O)c1CCN1CCC(=C(c2ccc(F)cc2)c2ccc(F)cc2)CC1 = Yes
CCCCCCCCS = No

Turning to the following molecule.
Recorded call for `Cc1cc(C)n(CO)n1` ?
No

----------
Target: Nuclear receptor subfamily 1 group I member 3 (Homo sapiens) (UniProt Q14994)
Sequence (Q14994 whole entry, looked up): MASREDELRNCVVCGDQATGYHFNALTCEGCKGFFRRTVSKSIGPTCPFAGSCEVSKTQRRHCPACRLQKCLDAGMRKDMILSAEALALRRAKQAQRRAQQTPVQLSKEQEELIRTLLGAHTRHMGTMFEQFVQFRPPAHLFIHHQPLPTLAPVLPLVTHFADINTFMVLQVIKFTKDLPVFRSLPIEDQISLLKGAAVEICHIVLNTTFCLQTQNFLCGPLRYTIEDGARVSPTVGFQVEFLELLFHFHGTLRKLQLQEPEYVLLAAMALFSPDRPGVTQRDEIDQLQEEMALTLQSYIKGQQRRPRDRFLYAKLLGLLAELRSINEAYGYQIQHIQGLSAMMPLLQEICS
Assay: qHTS assay to identify small molecule agonists of the constitutive androstane receptor (CAR) signaling pathway (AID 1224839); also: nearly all actives have a fitted effect of over 15% in size;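 as to activation: HepG2 cells stably carrying human CAR and a CYP2B6 luciferase reporter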
Conditions: HepG2 hCAR CYP2B6-luciferase, agonist mode, 24 h; series mostly up to 92.4 µM
Records with an inconclusive call do not appear. Activity calls are given as the source filed them. Calls come from the whole dose curve; as a rule, active = well fitted activation curve with a large enough effect in the repeat runs; inconclusive = weak or mixed curves; inactive = no such curve, though single readings can be large or run the other way.
Log the outcome using a class from Y = active, N = inactive

Cc1nc(C)c(C)nc1C = N
FC1(F)C(F)(F)C(F)(F)C2(F)C(F)(C1(F)F)C(F)(F)C(F)(F)C1(F)C(F)(F)C(F)(F)C(F)(F)C(F)(F)C12F (stereo unspecified) = N
O=C(Cl)c1cc(Cl)cc(Cl)c1 = N

Recorded call for `Nc1nc(Cl)nc2c1ncn2[C@H]1C[C@H](O)[C@@H](CO)O1` ?
N

Now this one: `COC(=O)Cc1cccc2ccccc12`
Y

Now this one: `CCCCCCOC(=O)c1ccccc1`
N
